Target Or System: activated hepsin (Homo sapiens, UniProt P05981)
Construct: purchased R&D Systems 4776-SE-010
Sequence (P05981 163-417 limits assumed): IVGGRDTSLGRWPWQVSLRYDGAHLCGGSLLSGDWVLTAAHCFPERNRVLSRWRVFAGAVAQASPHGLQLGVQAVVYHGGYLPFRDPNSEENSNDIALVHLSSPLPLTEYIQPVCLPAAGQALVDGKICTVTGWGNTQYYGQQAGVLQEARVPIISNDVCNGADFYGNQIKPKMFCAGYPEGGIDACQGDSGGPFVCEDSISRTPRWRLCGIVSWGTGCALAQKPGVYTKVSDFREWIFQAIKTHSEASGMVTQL
Sequence (P05981 1-162 partner limits assumed): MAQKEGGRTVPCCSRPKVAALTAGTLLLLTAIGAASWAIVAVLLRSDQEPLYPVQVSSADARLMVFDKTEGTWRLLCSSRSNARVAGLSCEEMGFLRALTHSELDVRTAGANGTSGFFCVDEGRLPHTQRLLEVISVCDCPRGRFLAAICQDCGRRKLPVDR
Assay Explanation: Fluorescent kinetic enzyme assay of hepsin activity (Boc-QAR-AMC)
Type: biochemical
Condition Details: Table 3; average of three experiments; read-out: Hepsin IC50
Reported IC50 by item:
Report as a plain number; the unit nM is understood.

## Input Reported IC50 for activated hepsin (Homo sapiens, UniProt P05981), given CC(C)C[C@H](NC(=O)OC1CCN(S(=O)(=O)c2ccc([N+](=O)[O-])cc2[N+](=O)[O-])CC1)C(=O)N[C@@H](CCCNC(=N)N)C(=O)c1nc2ccccc2s1 [Compound 8k] ?
## Output 110

Further cases:
## Input Reported IC50 for activated hepsin (Homo sapiens, UniProt P05981), given CCS(=O)(=O)N1CCC(OC(=O)N[C@@H](CC(C)C)C(=O)N[C@@H](CCCNC(=N)N)C(=O)c2nc3ccccc3s2)CC1 [Compound 8h] ?
## Output 10

## Input Reported IC50 for activated hepsin (Homo sapiens, UniProt P05981), given CC(C)C[C@H](NC(=O)OC1CCN(S(=O)(=O)c2ccccc2F)CC1)C(=O)N[C@@H](CCCNC(=N)N)C(=O)c1nc2ccccc2s1 [Compound 8g] ?
## Output 70

----------
Target Or System: activated hepsin (Homo sapiens, UniProt P05981)
Construct: purchased R&D Systems 4776-SE-010
Assay Explanation: Fluorescent kinetic enzyme assay of hepsin activity (Boc-QAR-AMC)
Assay type: biochemical
Condition Details: Table 3; average of three experiments; read-out: Hepsin IC50
Reported pIC50 by item:
// returns pIC50 (minus log10 of molar concentration), number only

Example entries begin here.
## Input I'd like to know its pIC50. The compound in question is Cc1cc(C)c(S(=O)(=O)N2CCC(OC(=O)N[C@@H](CC(C)C)C(=O)N[C@@H](CCCNC(=N)N)C(=O)c3nc4ccccc4s3)CC2)c(C)c1 [Compound 8m]
## Output 6.96

## Input I'd like to know its pIC50. The compound in question is CC(C)C[C@H](NC(=O)OC1CCN(S(=O)(=O)c2cccc(F)c2)CC1)C(=O)N[C@@H](CCCNC(=N)N)C(=O)c1nc2ccccc2s1 [Compound 8j]
## Output 7.15

Further cases:
## Input I'd like to know its pIC50. The compound in question is CC(C)C[C@H](NC(=O)OC1CCN(S(=O)(=O)c2ccc(Cl)cc2)CC1)C(=O)N[C@@H](CCCNC(=N)N)C(=O)c1nc2ccccc2s1 [Compound 8i]
## Output 7.22

----------
Reported IC50 by item:
Target Or System: recombinant HGFA serine protease domain (Homo sapiens, UniProt Q04756)
Construct: His6 tag (N); seven amino acid spacer plus TEV cleavage site (N); made in house; host or cells: High 5 insect cells (baculovirus; Sf9 for virus production)
Sequence (Q04756 373-655): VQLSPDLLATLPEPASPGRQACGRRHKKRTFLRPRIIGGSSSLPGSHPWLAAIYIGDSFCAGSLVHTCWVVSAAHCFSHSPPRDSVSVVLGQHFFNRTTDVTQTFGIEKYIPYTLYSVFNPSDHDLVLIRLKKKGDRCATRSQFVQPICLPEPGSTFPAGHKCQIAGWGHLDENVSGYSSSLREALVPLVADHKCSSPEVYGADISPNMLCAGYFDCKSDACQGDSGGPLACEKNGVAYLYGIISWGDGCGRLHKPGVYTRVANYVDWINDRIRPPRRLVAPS
Assay Explanation: Fluorescent kinetic enzyme assay of HGFA activity (Boc-QLR-AMC)
Assay type: biochemical
Condition Details: Table 2; read-out: HGFA (IC50 nM)
Starred links: 1 amine or outer side, 2 acyl side, 3 side chain; linkers in the order of their positions; H or OH if unused. Positions of bridges follow the written chain, without caps; N, C: chain ends. Non-standard residues stand in square brackets, D forms with d. Residues, ends and D or L forms follow the SMILES beside them. X6 = N=C(N)NCCC[C@H](N[*:1])C(=O)c1nc2ccc(C(=O)[*:2])cc2s1
Report as a plain number; the unit nM is understood.

Example entries begin here.
## Input I'd like to know its IC50. The compound in question is "CC(=O)N[C@H]1Cc2ccc(cc2)OCCCC[C@@H](C(=O)N[C@@H](CCCNC(=N)N)C(=O)c2nc3ccccc3s2)NC(=O)[C@H](Cc2c[nH]c3ccccc23)NC1=O"
## Output 85.2

## Input I'd like to know its IC50. The compound in question is "CC(=O)N[C@H]1Cc2ccc(cc2)OCCCC[C@@H](C(=O)N[C@@H](CCCNC(=N)N)C(=O)c2nc3ccccc3s2)NC(=O)[C@H](Cc2ccccc2)NC1=O"
## Output 11.9

## Input I'd like to know its IC50. The compound in question is "CC(C)C[C@@H]1NC(=O)[C@@H](N)CC(=O)NCCCC[C@@H](C(=O)N[C@@H](CCCNC(=N)N)C(=O)c2nc3ccccc3s2)NC1=O"
## Output 11400

Further cases:
## Input I'd like to know its IC50. The compound in question is "CC(=O)N[C@H]1CC(=O)NCCCC[C@@H](C(=O)N[C@@H](CCCNC(=N)N)C(=O)c2nc3ccccc3s2)NC(=O)[C@H](C(C)C)NC1=O"
## Output 1830

## Input I'd like to know its IC50. The compound in question is "CC(=O)N[C@H]1CCCCNC(=O)CC[C@@H](C(=O)N[C@@H](CCCNC(=N)N)C(=O)c2nc3ccccc3s2)NC(=O)[C@H](CCCNC(=N)N)NC1=O"
## Output 5050

## Input I'd like to know its IC50. The compound in question is "CC(=O)N[C@H]1CC(=O)NCCCC[C@@H](C(=O)N[C@@H](CCCNC(=N)N)C(=O)c2nc3ccccc3s2)NC(=O)CNC1=O"
## Output 4310

## Input I'd like to know its IC50. The compound in question is CC(=O)N[C@H]1CCCCNC(=O)CCC(C(=O)N[C@H](CCCNC(=N)N)C(=O)c2nc3ccccc3s2)NC(=O)[C@H](CCCNC(=N)N)NC1=O (stereo partly shown) [VD2109A]
## Output 4090

## Input I'd like to know its IC50. The compound in question is CC(=O)N[C@H]1Cc2ccc(cc2)OCCCC[C@@H](C(=O)N[C@H](CCCNC(=N)N)C(=O)c2nc3ccccc3s2)NC(=O)[C@H](Cc2ccccc2)NC1=O [VD4111A]
## Output 3280

## Input I'd like to know its IC50. The compound in question is "CC(=O)N[C@H]1CC(=O)NCCCC[C@@H](C(=O)N[C@@H](CCCNC(=N)N)C(=O)c2nc3ccccc3s2)NC(=O)[C@H](CC(N)=O)NC1=O"
## Output 15800

## Input I'd like to know its IC50. The compound in question is "CC(=O)N[C@H]1CC(=O)NCCCC[C@@H](C(=O)N[C@@H](CCCNC(=N)N)C(=O)c2nc3ccccc3s2)NC(=O)[C@H]([C@H](C)O)NC1=O"
## Output 11800

## Input I'd like to know its IC50. The compound in question is CC(=O)N[C@H]1Cc2ccc(cc2)OC/C=C\C[C@@H](C(=O)NC(CCCNC(=N)N)C(=O)c2nc3ccccc3s2)NC(=O)[C@H](CC(C)C)NC1=O (stereo partly shown) [VD4010A]
## Output 197

## Input I'd like to know its IC50. The compound in question is "CC(=O)N[C@@H](Cc1ccc(O)c([N+](=O)[O-])c1)C(=O)N[C@@H](CC(C)C)C(=O)N[C@@H](Cc1ccc(Br)cc1)C(=O)N[C@@H](CCCNC(=N)N)C(=O)c1nc2ccccc2s1"
## Output 14000

## Input I'd like to know its IC50. The compound in question is "CC(=O)N[C@H]1Cc2ccc(cc2)OC/C=C\C[C@@H](C(=O)N[C@@H](CCCNC(=N)N)C(=O)c2nc3ccccc3s2)NC(=O)[C@H](CC(C)C)NC1=O"
## Output 11.1

## Input I'd like to know its IC50. The compound in question is "CC(=O)N[C@H]1CC(=O)NCCCC[C@@H](C(=O)N[C@@H](CCCNC(=N)N)C(=O)c2nc3ccccc3s2)NC(=O)[C@H](Cc2ccccc2)NC1=O"
## Output 3170

## Input I'd like to know its IC50. The compound in question is CC(=O)N[C@H]1CCCCNC(=O)CCC(C(=O)N[C@@H](CCCNC(=N)N)C(=O)c2nc3ccccc3s2)NC(=O)[C@H](CCCNC(=N)N)NC1=O (stereo partly shown) [VD2109B]
## Output 2520

## Input I'd like to know its IC50. The compound in question is CC(=O)N[C@@H](Cc1ccc(O)c([N+](=O)[O-])c1)C(=O)N[C@@H](CC(C)C)C(=O)N[C@@H](Cc1ccc(Br)cc1)C(=O)N[C@H](CCCNC(=N)N)C(=O)c1nc2ccccc2s1 [VD4112A]
## Output 3510

## Input I'd like to know its IC50. The compound in question is CC(=O)N[C@H]1CC(=O)N(C)CCCC[C@@H](C(=O)N[C@@H](CCCNC(=N)N)C(=O)c2nc3ccccc3s2)NC(=O)[C@H](CC(C)C)NC1=O [VD4192C1]
## Output 7730

## Input I'd like to know its IC50. The compound in question is CC(=O)N[C@H]1CC(=O)NCCCC[C@@H](C(=O)N[C@@H](CCCNC(=N)N)C(=O)c2nc3ccc(C(=O)N[C@@H](C(N)=O)C(C)C)cc3s2)NC(=O)[C@H](CC(C)C)NC1=O [VD3056] (Ac-DLK[X6][dV]-NH2; lactam 1-3)
## Output 5380

## Input I'd like to know its IC50. The compound in question is CC(=O)N[C@H]1CCCCn2cc(nn2)C[C@H](C(=O)N[C@H](CCCNC(=N)N)C(=O)c2nc3ccccc3s2)NC(=O)[C@H](CC(C)C)NC1=O [VD4118B]
## Output 10900
